Test: Cytotoxicity against human HepG2 cells incubated for 24 hrs by XTT assay
Format: toxicity, cell-based
Conditions: read-out: LD50
Readout kind: CC50 at 24 h (µg/mL)
Answer with a number only, understood to be in µg/mL.

[
  {
    "Molecule": "Cl.NCc1ccc(-c2nc(-c3ccnc(Oc4ccc(C(F)(F)F)cc4)c3)no2)cc1",
    "Uom": "µg/mL",
    "CC50 at 24 h": 51
  },
  {
    "Molecule": "Cl.NCc1ccc(-c2nc(-c3ccc(Oc4ccc(F)cc4)cc3)no2)cc1",
    "Uom": "µg/mL",
    "CC50 at 24 h": 38
  },
  {
    "Molecule": "Oc1ccc(-c2nc(-c3ccc(OC4CCCC4)cc3)no2)cc1",
    "Uom": "µg/mL",
    "CC50 at 24 h": 22
  },
  {
    "Molecule": "CC(C)Oc1ccc(-c2nc(-c3cccc4c3CC[C@@H]4NCCO)no2)cc1C#N.Cl [OZANIMOD HYDROCHLORIDE]",
    "Uom": "µg/mL",
    "CC50 at 24 h": 46
  }
]

Alright, here's another molecule for you.
Request: Look up CC50 at 24 h for this molecule: Cl.NCc1ccc(-c2nc(-c3ccc(I)cc3)no2)cc1
Result: 39

###

Test system: Clostridioides difficile
Experiment: Antibacterial activity against Clostridium difficile ATTC43255 assessed as spore germination inhibition at 45 uM incubated for 60 mins by spectrometry relative to control
Type: functional
Settings: ATTC43255, 1 h
Readout kind: inhibition at 45 µM

Solved entries (count: 3):
[
  {
    "Compound": "NCCc1ccc(Oc2cc(-c3noc(-c4ccc(CN)cc4)n3)ccn2)cc1",
    "inhibition at 45 µM": "27%"
  },
  {
    "Compound": "NCCCCc1nc(-c2ccc(OC3CCCC3)cc2)no1",
    "inhibition at 45 µM": "< 10%"
  },
  {
    "Compound": "Cc1c(Cl)c(C)[n+]([O-])c(Cl)c1-c1noc(-c2cc(O)c(O)c([N+](=O)[O-])c2)n1 [OPICAPONE]",
    "inhibition at 45 µM": "< 10%"
  }
]

Request: Test system Clostridioides difficile; read-out inhibition at 45 µM; what value for COC(OC)c1ccc(-c2noc(-c3ccc(O)cc3)n2)cc1 ?
Result: < 10%

Request: And then Cl.NCc1ccc(-c2nc(-c3ccc(I)cc3)no2)cc1 , what is it?
Result: 51%

###

Assay: Drug concentration in liver of Golden Syrian hamster at 5 mg/kg, po bid measured after 8 hrs
Assay type: ADME, organism-based, Mesocricetus auratus
Conditions: read-out: Ct
Readout kind: concentration at 8 h (ng/g)
Answer with a number only, understood to be in ng/g.

Request: Look up concentration at 8 h for this compound: Cl.NCc1ccc(-c2nc(-c3ccnc(Oc4ccc(C(F)(F)F)cc4)c3)no2)cc1
Result: 5600

###

Tested on: Clostridioides difficile
Assay: Antibacterial activity against Clostridium difficile ATTC43255 assessed as spore germination inhibition at 45 uM incubated for 60 mins by spectrometry relative to control
Assay type: functional
Conditions: ATTC43255, 1 h
# maps each entry to its inhibition at 45 µM

[
  {
    "Mol smiles": "Cl.NCc1ccc(-c2nc(-c3ccc(Oc4ccc(F)cc4)cc3)no2)cc1",
    "Experimental target": "Clostridioides difficile",
    "Data value": "60%"
  },
  {
    "Mol smiles": "CCCCOc1ccc(-c2noc(-c3ccc(CN)cc3)n2)cc1",
    "Experimental target": "Clostridioides difficile",
    "Data value": "32%"
  },
  {
    "Mol smiles": "FC(F)(F)c1ccc(Oc2ccc(-c3noc(-c4n[nH]c5ccccc45)n3)cc2)cc1",
    "Experimental target": "Clostridioides difficile",
    "Data value": "< 10%"
  },
  {
    "Mol smiles": "NCCCCc1nc(-c2ccc(Oc3ccc(F)cc3)cc2)no1",
    "Experimental target": "Clostridioides difficile",
    "Data value": "< 10%"
  },
  {
    "Mol smiles": "FC(F)(F)c1ccc(Oc2ccc(-c3noc(-c4n[nH]cc4NC4CCCCC4)n3)cc2)cc1",
    "Experimental target": "Clostridioides difficile",
    "Data value": "< 10%"
  }
]

Alright, here's another compound for you.
Request: Look up inhibition at 45 µM for this compound: COc1ccc(-c2noc(-c3ccc(O)cc3)n2)cc1OC
Result: < 10%

From: ChEMBL document CHEMBL6134901
